# measurement.notes: self-splicing fitness, log relative to wild type (ln ratio); higher = more splicing; Tetrahymena group I intron in knt gene, E. coli kanamycin selection, DiMSum; sequences stand for … in CUCUCU…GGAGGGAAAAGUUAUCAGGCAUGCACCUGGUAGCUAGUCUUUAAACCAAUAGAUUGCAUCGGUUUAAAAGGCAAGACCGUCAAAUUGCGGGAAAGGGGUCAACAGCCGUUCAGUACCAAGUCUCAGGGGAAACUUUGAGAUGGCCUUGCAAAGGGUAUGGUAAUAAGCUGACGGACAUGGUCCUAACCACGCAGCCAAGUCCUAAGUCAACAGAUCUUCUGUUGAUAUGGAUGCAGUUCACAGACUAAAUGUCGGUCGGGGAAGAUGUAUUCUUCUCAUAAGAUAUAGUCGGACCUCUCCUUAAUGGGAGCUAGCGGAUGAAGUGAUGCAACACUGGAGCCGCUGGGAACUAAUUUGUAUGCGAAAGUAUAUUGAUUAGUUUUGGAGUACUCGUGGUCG;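 also: selection with 25 µg/mL kanamycin versus none on LB agar overnight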
# test.conditions: 37 °C
quantity.measured: self-splicing fitness (ln)
One number for each entry.

UCAGAGCAAUAUUACGUGUU = -2.27

List the reported self-splicing fitness (ln) of each sequence below.
1. GAACAGCAAUAUUACGUUUG
2. CUCAAGCAAUAUUACGGAAA
3. AGGCAGCAAUAUUACGUCUA
4. CAGAAGCAAUAUUACGUCAC
5. CCUGAGCAAUAUUACGUAUU

1. -0.632
2. -2.6
3. 0.262
4. -1.05
5. -2.98

For each entry beneath this line, provide reported self-splicing fitness (ln).
1. UGAUAGCAAUAUUACGCACA
2. GACGAGCAAUAUUACGCUAG

1: -0.216; 2: -2.47
